B1: scFv; the commonest letter at each place (parent)
chain 1: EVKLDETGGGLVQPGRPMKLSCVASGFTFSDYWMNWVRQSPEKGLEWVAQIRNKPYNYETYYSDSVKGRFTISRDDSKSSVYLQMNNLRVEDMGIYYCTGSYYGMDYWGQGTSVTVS
chain 2: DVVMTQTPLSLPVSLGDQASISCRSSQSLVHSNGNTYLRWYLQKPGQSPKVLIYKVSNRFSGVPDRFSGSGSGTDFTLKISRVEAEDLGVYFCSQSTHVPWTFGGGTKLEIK

Variants of: B1
METHOD: Kd (Tite-Seq)
CONDITION NOTES: with fluorescein; format: scFv 4-4-20, heavy + light
pKd: −log10 of the molar value.
PARAMETER MEASURED: pKd

MUTATION SPEC | pKd
chain 1 F29M D31Y W33Q | ≤ 5.00
chain 1 F29I D31K | 8.31
chain 1 W33Q | ≤ 5.00
chain 1 Y32V V37I | ≤ 5.00
chain 1 T28V W36H | ≤ 5.00

GET /values?readout=pKd&item= chain 1 T28W F29R
≤ 5.00

GET /values?readout=pKd&item= chain 1 G100L
≤ 5.00

GET /values?readout=pKd&item= chain 1 G100S M105W
5.27

GET /values?readout=pKd&item= chain 1 G104Q G109M
≤ 5.00

GET /values?readout=pKd&item= chain 1 D106G Y107S
≤ 5.00

GET /values?readout=pKd&item= chain 1 D31K W36T
≤ 5.00
